Origin of measurements: the supplement of paper PMC9170038

- System: MS2 coat protein
- assay_procedure: apparent KD of MS2 coat protein; designed switch direction (-1 OFF switch, 1 ON switch): -1; higher = weaker reporter binding
- condition_details: input ligand: none
Assign met whenever apparent KD of MS2 coat protein does not fall below 200 nM; assign not met whenever it does.

Record excerpt, results attached:
GAUCAUGCAGGAUAUACAUGUUCCAUGAAAACAUGGUCCUCACAUGAGGAUCACCCAUGUAGAAGGGCAUGAUC [Omei Ex2 A31] (Eterna round: R97, puzzle: Exclusion 2) | met
AUAAGUGAUAAGGAUAUCACUAGCUUCGGCUAGUGAGAAGGUAUCACAUGAGGAUCACCCAUGUGUUCCAAUAA [Ex6/7-A1] (Eterna round: R97, puzzle: Exclusion 6) | met
GCAUCGGCAGGAUAUACGCCGUAUGACAUGAGGAUCACCCAUGUUCCCGAGUCACAGAAAGUAGAAGGGCUGGAUA [Eternabot (L2) Solution 70] (Eterna round: R97, puzzle: Exclusion 5) | not met
ACAAGCUCUGUGGGUGGUGACAUGAGGAUCACCCAUGUUUUGCUCGUCUUGUCCCGGGCCCGGCGCCCGGGCCCGGG [-40.4, -69.3, A 12%] (Eterna round: R97, puzzle: Sensor, turn-off variant 1) | met

Moving on to the next sequence.
Prompt: Kindly determine if apparent KD of MS2 coat protein recorded for UGAUUCCUAGGAUAUGCUGGAUAUGAGGUCCCGAGUUGCCGACAUGAGGAUCACCCAUGUAGAAGGAGGUGUCG [Eternabot (L1) Solution 66] (Eterna round: R97, puzzle: Exclusion 2) is above or exactly 200 nM.
Response: not met

====

- Test system: MS2 coat protein
- assay_procedure: apparent KD of MS2 coat protein, switch ON state; designed switch direction (-1 OFF switch, 1 ON switch): -1; higher = weaker reporter binding
- condition_details: FMN input: 0 or 200 uM; Eterna round: R93 (includes R88 designs)
Assign yes (1) whenever apparent KD of MS2 coat protein does not fall below 0.03 µM; assign no (0) whenever it does.

Record excerpt, results attached:
AAUAACCGAGGAUAUACAAAACUUGUGAUCUAGUGGAUUUUACAUGAGGAUCACCCAUGUAGAAGGCGGAAAAG [Veenquge] | yes (1)
AACAGUACAGGAUAUACAUGAGGAUCACCCAUGUGAAAAUUAAGUGGAGAACCACAAUGUAGAAGGGUACUGGA [Mat - Exclusion 3 - Eli mod - D48] | yes (1)
AAUUAGGUAGGAUAUACAUGAGGAUCACCCAUGUGGGAAAAAAACUACGAAAAAGAAUGUAGAAGGACCUAAAA [Mat - Exclusion 3 - Mayanna mod - D104] | no (0)

Prompt: Kindly determine if apparent KD of MS2 coat protein recorded for AUGUACCUAGGAUAUACAUGAGGAUCACCCAUGUAUUGGGAGCAAUCCAGUUAAUAUUGUAGAAGGAGGUGAAA [JR_Exc003_Sub317] is above or exactly 0.03 µM.
Response: yes (1)

Prompt: Kindly determine if apparent KD of MS2 coat protein recorded for AACAGUACAGGAUAUACAUGAGGAUCACCCAUGUGAAAUAAAAGUGGCGUACCACAAAGUAGAAGGGUACUGGA [Mat - Exclusion 3 - JL mod - D22] is above or exactly 0.03 µM.
Response: no (0)

Prompt: Kindly determine if apparent KD of MS2 coat protein recorded for AAAAAGCGAGGAUAUACAUGAGGAUCACCCAUGUCAAAAAAAUAGAAAAAAAUAAAAAGUAGAAGGCGCAAAAA [Ex 3 #1] is above or exactly 0.03 µM.
Response: yes (1)

Prompt: Kindly determine if apparent KD of MS2 coat protein recorded for AAUAAGAGAGGAUAUACAUAAUAAAAGAAAAGAAACAAAGAACAUGAGGAUCACCCAUGUAGAAGGCUCAAUAA [Sonbef] is above or exactly 0.03 µM.
Response: no (0)

Prompt: Kindly determine if apparent KD of MS2 coat protein recorded for AAGAAGACAGGAUAUACAUGAGGAUCACCCAUGUAAAAGAAAGAAGGGAAAGAGAAAAGUAGAAGGGUCAAGAA [Menkheperre Ini] is above or exactly 0.03 µM.
Response: no (0)

Prompt: Kindly determine if apparent KD of MS2 coat protein recorded for AAAAAGUUAGGAUAUACAUGAGGAUCACCCAUGUGCACGUAUGGAGAAUAUGGUGGUAGUAGAAGGGACAAAAA [EX2 Malc#18] is above or exactly 0.03 µM.
Response: yes (1)

Prompt: Kindly determine if apparent KD of MS2 coat protein recorded for AAAAAGUGAGGAUAUACAUGAGGAUCACCCAUGUGAAAGUCGAAAAAAAAGACAAAAAGUAGAAGGCACAAAAA [Fiskers Exclusion 3 D2] is above or exactly 0.03 µM.
Response: no (0)

Prompt: Kindly determine if apparent KD of MS2 coat protein recorded for AAAACUGGAGGAUAUACAUGAGGAUCACCCAUGUGUGGAUGAGCUGUGUCGGCAUCACGUAGAAGGCCACAAAA [Gilly Gone Silly 38 - Jieux - Exclusion 3] is above or exactly 0.03 µM.
Response: yes (1)

Prompt: Kindly determine if apparent KD of MS2 coat protein recorded for AAAAAACAUGAGGAUCACCCAUGUGAGGAUAUGUACGAAAAUAAAUAAAAAUAAAAGUACAGAAGGCACAAAAA [66%, Wbt, 2] is above or exactly 0.03 µM.
Response: yes (1)

====

- System: MS2 coat protein
- assay_procedure: apparent KD of MS2 coat protein; designed switch direction (-1 OFF switch, 1 ON switch): -1; higher = weaker reporter binding
- condition_details: input ligand: FMN 200 uM
Assign true whenever apparent KD of MS2 coat protein does not fall below 200 nM; assign false whenever it does.

Record excerpt, results attached:
ACAUGAGGAUCACCCAUGUGACAAUAAUGGCUGAUACAGAGACAGGAUAUUCGUGAAUAUCUAACGAAGAAGGGUCAUGACUGG [Deportation 69 - Jieux - Exclusion NG 3] (Eterna round: R96, puzzle: Exclusion NG 3) | false
GUUUCACAUGAGGAUCACCCAUGUGAGGAUAUGUUUUUAAAAGCAAUAGUUUUUGAAAACAGAAGGCGCGUGAU [JR_Exc1_Sub008] (Eterna round: R97, puzzle: Exclusion 1) | false
AUCAGCUCGUGAGGAUAUACAUGAGGAUCACCCAUGUGGUCAUUAGCAGCUUCGGCUGCAUUAAUGUAGAAGGCACGAGCUGAU [ENG2/8-A2] (Eterna round: R96, puzzle: Exclusion NG 2) | true
ACAUCACAUGAGGAUCACCCAUGUCAGGAUAUUCAGCGUAGCAUGCUACCUAACAUCAGAAGAAGGGACACGUA [First Design] (Eterna round: R97, puzzle: Exclusion 1) | false

Prompt: Kindly determine if apparent KD of MS2 coat protein recorded for CUAAUACAUCAGGAUAUCUAUGAUUAUAGCCAUAGAGAAGGGAUGACAUGAGGAUCACCCAUGUCAAAGGGUGA [eternacac ex6r4 sub21] (Eterna round: R97, puzzle: Exclusion 6) is above or exactly 200 nM.
Response: true

Prompt: Kindly determine if apparent KD of MS2 coat protein recorded for CAUUAUUAUCGAGGAUAUCCUAUUGUAAUACUGGGAGAAGGCGGACUCAACAUGAGGAUCACCCAUGUAAGACGGGUACUAGAU [Ex NG1 #22] (Eterna round: R96, puzzle: Exclusion NG 1) is above or exactly 200 nM.
Response: true

====

Give measured apparent KD of MS2 coat protein for each item. Keep answers brief.
- Tested on: MS2 coat protein
- assay_procedure: apparent KD of MS2 coat protein; designed switch direction (-1 OFF switch, 1 ON switch): -1; higher = weaker reporter binding
- condition_details: input ligand: none
Answers are plain numbers, in nM.

For orientation, consider the following solved cases.
UUUGUUUAUGUAGGAUAUGCCUGGCGUGCCUUCGCAGAAGGACAUGAGGAUCACCCAUGUAUUGCGGUCUGCGUUCAGAUCGCC [salish99_ExNG1_r4_028] (Eterna round: R96, puzzle: Exclusion NG 1) | 21
UUACGGCGGAUCGUGGCUUUUUGCUCGUCUUGUGCUACAACAUGAGGAUCACCCAUGUAGAGGUGAUCCGUUGUAUU [Grok-var2-19 mod JAL] (Eterna round: R96, puzzle: Sensor v3, turn-off variant 2) | 740

Prompt: For the sequence shown here, GCACGGAGUGUAGGAUAUUAGUGCGAUUAGCACUGAGAAGGACAUGAGGAUCACCCAUGUUCCUCGAUAAAAUACCUUCCGUGC [Eli exng1 - 041] (Eterna round: R96, puzzle: Exclusion NG 1) , give the reported apparent KD of MS2 coat protein.
Response: 11.8

====

- Tested on: MS2 coat protein
- assay_procedure: apparent KD of MS2 coat protein; designed switch direction (-1 OFF switch, 1 ON switch): 1; higher = weaker reporter binding
- condition_details: input ligand: FMN 200 uM
Give measured apparent KD of MS2 coat protein for each item. Keep answers brief.
One number for each entry, in nM.

CUGAAAUGUCAAGGAUAUCACGUCGAUUAGACGUGAGAAGGUGAUCUGCACAUGAGGAUCACCCAUGUGUUACAUGGGAAUCAG [Brourd's SSNG1/1-A2 mod 15] (Eterna round: R96, puzzle: Same State NG 1) | 289
GAGUGGCAGUUAGGAUAUAUAGUGAUAAUUACAAUAGAAGGAACAGACAUGAGGAUCACCCAUGUAGGACUAAUCCAGAGAGAG [Parity 38 - Jieux - Same State NG 1] (Eterna round: R96, puzzle: Same State NG 1) | 30.9
GGAGCCGGCCUAGGAUAUUUCAUCAAAAAACAUGAGGAUCACCCAUGUAGGCCAGAAGGCCUUGGGAAGAAGGAGGUCGGCUCC [Loop Effect - C24] (Eterna round: R96, puzzle: Same State NG 2) | 10.2

Prompt: For the sequence shown here, AGUCCAGCCUGAGCUGGACAAAAGCAUGUACAUGAGGAUCACCCAUGUCAUGUACAAGCUUUUUGCUCGUUUUAAAA [Zipper 46 - 13] (Eterna round: R96, puzzle: Sensor for hsa-mir-208a) , give the reported apparent KD of MS2 coat protein.
Response: 633
